Biological target: imidazoline preferring receptor (IR)
Assay: Displacement of 3H-idazoxan (4 nM) in the presence of (-)-adrenaline (IR affinity)
Conditions: 3H-idazoxan (4 nM), (-)-adrenaline (10^-6 M), rat cerebral cortex; mean of 10 experiments
Reported property: Ki (µM)

* c1ccc2c(c1)OCC(C1=NCCN1)O2 (centres unmarked) [Idazoxan, reference compound] | 0.014
* COc1ccc2oc(-c3ncc[nH]3)cc2c1.Cl [Example 7, hydrochloride] | 0.163
* Brc1ccc2oc(-c3ncc[nH]3)cc2c1.Cl [Example 6, hydrochloride] | 0.117
* Cl.c1ccc2oc(-c3ncc[nH]3)cc2c1 [Example 1, hydrochloride] | 0.089
* COC1(C2=NCCN2)COc2ccccc2O1 (centres unmarked) [RX 821002, reference compound] | 44.9

(A) COc1ccc2cc(-c3ncc[nH]3)oc2c1.Cl [Example 3, hydrochloride]
(B) Cl.Cn1ccnc1-c1cc2ccccc2o1 [Example 2, hydrochloride]
Prompt: // pick larger Ki from pair: A vs B Give the chosen item's label as your response.
Completion: A
(A: 0.151 µM, B: 0.015 µM)

Data provenance is patent US5310930A.
